All figures here come from the supplement of paper PMC9170038.

# System: MS2 coat protein
# ASSAY REMARKS: apparent KD of MS2 coat protein; higher = weaker reporter binding
# EXPERIMENTAL PARAMETERS: Eterna round: R107; input ligand: none
READOUT NAME: apparent KD of MS2 coat protein (nM)

- QUERY SEQUENCE: "CCUAACCGAUCGGCCGCCACUGACCGGUACCUCUUCGAAACCCGCCACAUGAGGAUCACCCAUGUCAGGACCGGGAUUGCACAGG [Inxeus]"
  READOUT NAME: "apparent KD of MS2 coat protein"
  UNIT TEXT: "nM"
  TEST RESULT: 17.2
- QUERY SEQUENCE: "GGGCCCGGGCCGGAAACGGCCCGGGCCCUGCGAGGACCGGUACGGCCGCCACUCGCUCGAGUGGGUACAUGAGGAUCACCCAUGU [#17 Exclusion Tryptophan A]"
  READOUT NAME: "apparent KD of MS2 coat protein"
  UNIT TEXT: "nM"
  TEST RESULT: 28.4
- QUERY SEQUENCE: "AGACGAGAAGAGGAUUACCCAUGUACAGAAGGAGCGUCGUUGACGACAGGUAGGUCGCUGAGAACAUGAGGAUCACCCAUGUUGA [Arg A Ex t1]"
  READOUT NAME: "apparent KD of MS2 coat protein"
  UNIT TEXT: "nM"
  TEST RESULT: 42.9
- QUERY SEQUENCE: "AAGGUGAUCCGUGAUACCAGCUCAACAUGAGGAUCACCCAUGUAAGCCUGGAAACAGGCGAGCCCUUGGCAGCACGGUUGCCAAG [(M)'-(Theo1)-(Ms2)-(Theo2)-(M'')-(T2)'_Design1]"
  READOUT NAME: "apparent KD of MS2 coat protein"
  UNIT TEXT: "nM"
  TEST RESULT: 165
- QUERY SEQUENCE: "CCUAUCCAGUCGGCCGCCACUGAAAACAGUGGGUGAACAUGAGGAUCACCCAUGUAGGAUUUCCACAGGACCGGGACUGUAUAGG [Ex Tryptophan B 24]"
  READOUT NAME: "apparent KD of MS2 coat protein"
  UNIT TEXT: "nM"
  TEST RESULT: 933
- QUERY SEQUENCE: "ACUAGAGGUGGAAGGAGCGGGAGACAUGAGGAUCACCCAUGUGAAGUUUCGAGAGGAUCAUCCCAGGUAGGUCGCCAUGUCGAAA [vvbvmullin]"
  READOUT NAME: "apparent KD of MS2 coat protein"
  UNIT TEXT: "nM"
  TEST RESULT: 27.4
- QUERY SEQUENCE: "GGUACAUGAGGAUCACCCAUGUAUGGGUACCGAGGACCGGUACGGCCGCCACUCGCAGGACAUGAGGAUCACCCAUGUGCAACCG [SSTA DOUBLE!!! :-D #11]"
  READOUT NAME: "apparent KD of MS2 coat protein"
  UNIT TEXT: "nM"
  TEST RESULT: 142
- QUERY SEQUENCE: "AUAUUAAUCGGAAGGAGCGGUACAUGAGGAUCACCCAUGUGCGAAGCCAGCAGAUCCCGUUACCAGGUAGGUCGCCGAGUUAUGA [Begebe]"
  READOUT NAME: "apparent KD of MS2 coat protein"
  UNIT TEXT: "nM"
  TEST RESULT: 33
- QUERY SEQUENCE: "GGUCUCGAGAGCGAUACCAGCUUGAUCGUACUGGCCUGGUACAUGAGGAUCACCCAUGUAAGCCCUUGGCAGCGCUCUCGAGACC [#1 Exclusion - Theophylline B Attempt #7 (HarryS)]"
  READOUT NAME: "apparent KD of MS2 coat protein"
  UNIT TEXT: "nM"
  TEST RESULT: 11.4
- QUERY SEQUENCE: "ACAUGAGGAUCACCCAUGUGAAGGCACGAUACCAGCUGAUCCCGUGGCCCUUGGCAGCGUCCGGUGUGGUCCGGCGGGUGGGACG [bbvmullin]"
  READOUT NAME: "apparent KD of MS2 coat protein"
  UNIT TEXT: "nM"
  TEST RESULT: 29
- QUERY SEQUENCE: "AUAACAUGAGGAUCACCCAUGUAAGCUGAAGGAGCGCUGGAAACAGCAGGUAGGUCGCAGCGGCGACCUUCCUCAUGAAGGUCGC [(M1)-(M2)-(Arg1)-(Arg2)-(A)'-(M)'-(A)''_Design5]"
  READOUT NAME: "apparent KD of MS2 coat protein"
  UNIT TEXT: "nM"
  TEST RESULT: 14.2
- QUERY SEQUENCE: "CAUGUUAGGGCGGCCGCCACUGUGGCUACGGUACAUGAGGAUCACCCAUGUUUGUGGUUGAUCUACAGGACCGGGCCCUGACACG [Erarusge]"
  READOUT NAME: "apparent KD of MS2 coat protein"
  UNIT TEXT: "nM"
  TEST RESULT: 187
- QUERY SEQUENCE: "GGUGGGAGCAACGAUACCAGCUACAUGAGGAUCACCCAUGUGGAAUGGGAGUCAACAGCGAGCCCUUGGCAGCGUUAGACCCAAA [Bebeeserdi]"
  READOUT NAME: "apparent KD of MS2 coat protein"
  UNIT TEXT: "nM"
  TEST RESULT: 11.3
- QUERY SEQUENCE: "AAAAGAGGUGGAAGGAGCGGGAGACAUGAGGAUCACCCAUGUGAAGUAACGAAAGGUACAGCCCAGGUAGGUCGCCAUGUCGAAA [qxqamullin]"
  READOUT NAME: "apparent KD of MS2 coat protein"
  UNIT TEXT: "nM"
  TEST RESULT: 31.7
- QUERY SEQUENCE: "UAUCCACAUGAGGAUCACCCAUGUAGGGAAGGAGCGGUGAUUUCACCAGGUAGGUCGCCUUGCUCAGGGUUGCCGGUGGAAUCGU [Exclusion - Arginine A (Freestyle 34)]"
  READOUT NAME: "apparent KD of MS2 coat protein"
  UNIT TEXT: "nM"
  TEST RESULT: 12.7
- QUERY SEQUENCE: "UUAUAUAUGCGAAGGAGCGGGAAAUAUAUAUAUAUAAUCCUAACAUGAGGAUCACCCAUGUCCCAGGUAGGUCGCGCAUAUAUAG [12.C]"
  READOUT NAME: "apparent KD of MS2 coat protein"
  UNIT TEXT: "nM"
  TEST RESULT: 79
- QUERY SEQUENCE: "ACAUGAGGAUCACCCAUGUAUGAUGUUCCUCGAGGACCGGUACGGCCGCCACUCGAACGAGUGGCGCGCGCGCGCGCGCGCGCGC [aUa]"
  READOUT NAME: "apparent KD of MS2 coat protein"
  UNIT TEXT: "nM"
  TEST RESULT: 16.5
- QUERY SEQUENCE: "GCAUCCUAGUCGGCCGCCACUGGUACGAAUACCUUCACCCGUGUGCACAUGAGGAUCACCCAUGUCAGGACCGGGACUAGGAUGC [SSTryp B #23]"
  READOUT NAME: "apparent KD of MS2 coat protein"
  UNIT TEXT: "nM"
  TEST RESULT: 9.22
- QUERY SEQUENCE: "UGGUACAUGGCGGCCGCCACUUCACGUAAAAUAAAAACUUGAGGAACACCCAAGUAAUAAGUUGGGAGGACCGGGUCAUGUACCU"
  READOUT NAME: "apparent KD of MS2 coat protein"
  UNIT TEXT: "nM"
  TEST RESULT: 36.2
- QUERY SEQUENCE: "CAGCACAUGAGGAUCACCCAUGUGAGGGAUACCAGCUCAGGCGUGGGCCCUUGGCAGCUCUGUGGCUGACGAAAGUCAGCCUCUG [#18 SameState-TheophyllineA]"
  READOUT NAME: "apparent KD of MS2 coat protein"
  UNIT TEXT: "nM"
  TEST RESULT: 14.6
- QUERY SEQUENCE: "CCGUUUUAUGGCGACAUAGGGCGGACUGAAGGAGCGGUGAAUAAGCCAGGUAGGUCGCAGAGAUCCACAUGAGGAUCACCCAUGU [!0.aD]"
  READOUT NAME: "apparent KD of MS2 coat protein"
  UNIT TEXT: "nM"
  TEST RESULT: 52.6
- QUERY SEQUENCE: "CACGGACGAGUGGAUCACCCUUGUAAUAACCGAGGACCGGUACGGCCGCCACUCGAAAACCGUGACCUGUACGAAAAGUGCAGGA"
  READOUT NAME: "apparent KD of MS2 coat protein"
  UNIT TEXT: "nM"
  TEST RESULT: 26.5
- QUERY SEQUENCE: "AAUAAUAAGGCGGCCGCCACUACACAUGAGGAUCACCCAUGUCUCGCGGGCUUGCGUUGGGAAAGUAGGACCGGGCCAAUAAUAA [Exclusion - Tryptophan B (Freestyle 9)]"
  READOUT NAME: "apparent KD of MS2 coat protein"
  UNIT TEXT: "nM"
  TEST RESULT: 21.5
- QUERY SEQUENCE: "UUUAAAAUCAGAAGGAGCGUGAUAAACAUGAGGAUCACCCAUGUCGAAAAUUUAAUAUAAUCACAGGUAGGUCGCUGUAAUAUUU [Same State - Ariginine B]"
  READOUT NAME: "apparent KD of MS2 coat protein"
  UNIT TEXT: "nM"
  TEST RESULT: 14
